Where these numbers come from: PubChem BioAssay

# methodNotes: reversal of MRP1-mediated doxorubicin resistance, pilot screen, H69AR cells, doxorubicin co-treatment (AID 601)
# protocolConditions: H69AR cells + 2 uM doxorubicin, CellTiter-Glo, 72 h; measured here: viability with 2 uM doxorubicin; at 10 µM; stronger effect = lower value
measure: viability (%)
Give the number; % is assumed, so skip it.

# input For Cc1ccc(NC(=O)COS(=O)c2ccc(C)cc2)cc1 (stereo not drawn) , what is its reported viability?
# output 41.3

# input May I ask what viability has been recorded for COc1cc2c(cc1OC)CN(Cc1nc3ccsc3c(=O)[nH]1)CC2 ?
# output 84.6

# input What viability value was documented for this molecule, CCOC(=O)N1CCN(CC(=O)Nc2c(C(=O)OC)[nH]c3cccc(Cl)c23)CC1 ?
# output 87.8

# input Look at this molecule and give its reported viability. Cc1ccc(S(=O)(=O)Cn2nnnc2C(C(C)C)N2CCN(C(=O)c3ccco3)CC2)cc1 (stereo not drawn)
# output 83.1

# input Which value of viability has been reported for O=C(NCC1CCCO1)c1ccc(C(=O)NCC2CCCO2)cc1 (stereo not drawn) in the records?
# output 101

# input Which viability value is on record for O=C(O)/C=C/c1ccc(O)c(O)c1 ?
# output 92.5

# input Quick one: viability for CNC(=O)c1ccc2nc(NC(C)=O)sc2c1 ?
# output 90.4

# input Given the molecule COC(=O)c1nnn(-c2ccccc2)c1N , what is its reported viability?
# output 105

# input Requested read-out: viability. Entry: COc1cccc(N(C(=O)c2ccco2)C(C(=O)NC2CCCC2)c2ccc(N(C)C)cc2)c1 (stereo not drawn)
# output 77.2

# input Which viability is reported for this molecule? CC(C)OC(=O)CSc1nnc(-c2ccccn2)n1-c1ccccc1
# output 94.8

# input Need viability of COc1ccc(CCNC(=O)CCN2C(=O)C3CC=CCC3C2=O)cc1OC (stereo not drawn) , thanks.
# output 92.8

# input Entry CCC(=O)Nc1cc(C)c(NC(=O)C23CC4CC(CC(C4)C2)C3)cn1 has what viability?
# output 98

# input viability lookup needed for Clc1ccc(C2Nc3ccccc3-n3cccc32)cc1 (stereo not drawn) , thanks.
# output 75.9

# input Dear colleague, I am looking for the recorded viability of the following molecule: Cc1nc(C)c2c(c1C(F)(F)F)-c1ccccc1C2(F)F
# output 88.9

# input GET /values?readout=viability&item= COc1ccc(OC)c(C(=O)CSc2nc3ncccc3[nH]2)c1
# output 81.1

# input Which measured viability value corresponds to CC(NCCc1ccc(O)cc1)C(O)c1ccc(O)cc1 (stereo not drawn) ?
# output 92.3

# input molecule: C=CCn1c(N)c(C(=O)OC(C)(C)C)c2nc3ccccc3nc21 ; wanted: its viability
# output 66.7

# input Query: viability; subject: O=C(CCCn1c(=O)c2sccc2n(CC(=O)NCc2ccco2)c1=O)NCc1ccco1
# output 80

# input Sample Cc1ccc(S(=O)(=O)Cn2nnnc2CN(Cc2ccco2)Cc2cccs2)cc1 — what was its viability?
# output 75.9

# input State the recorded viability for this entry: Cn1c(=O)c2c(-c3ccncc3)c3c(nc2n(C)c1=O)-c1ccccc1C3=O
# output 92

# input Bench note: what viability did Cc1cccc(CC2CC(=O)N(c3ccccc3)C2=O)c1 (stereo not drawn) show?
# output 91.9

# input Could you tell me which viability is on file for Cc1ccc(C)c(C(=O)CC2(O)C(=O)Nc3ccccc32)c1 (stereo not drawn) ?
# output 88

# input Which viability value belongs to Cc1ccc(C2/C(=C(/O)c3cnn(-c4ccccc4)c3C)C(=O)C(=O)N2CCN2CCOCC2)o1 (stereo not drawn) ?
# output 77.1
